- target or test system: T1, Fusion protein of LAG-3 extracellular region and hIgG1 Fc (human)
- T1 construct: Limits of the signal peptide are marked only by lost underlining; also called LAG-3-Fc; LAG-3-Fc fusion protein
- T1 sequence (chain, as listed by the source limits assumed): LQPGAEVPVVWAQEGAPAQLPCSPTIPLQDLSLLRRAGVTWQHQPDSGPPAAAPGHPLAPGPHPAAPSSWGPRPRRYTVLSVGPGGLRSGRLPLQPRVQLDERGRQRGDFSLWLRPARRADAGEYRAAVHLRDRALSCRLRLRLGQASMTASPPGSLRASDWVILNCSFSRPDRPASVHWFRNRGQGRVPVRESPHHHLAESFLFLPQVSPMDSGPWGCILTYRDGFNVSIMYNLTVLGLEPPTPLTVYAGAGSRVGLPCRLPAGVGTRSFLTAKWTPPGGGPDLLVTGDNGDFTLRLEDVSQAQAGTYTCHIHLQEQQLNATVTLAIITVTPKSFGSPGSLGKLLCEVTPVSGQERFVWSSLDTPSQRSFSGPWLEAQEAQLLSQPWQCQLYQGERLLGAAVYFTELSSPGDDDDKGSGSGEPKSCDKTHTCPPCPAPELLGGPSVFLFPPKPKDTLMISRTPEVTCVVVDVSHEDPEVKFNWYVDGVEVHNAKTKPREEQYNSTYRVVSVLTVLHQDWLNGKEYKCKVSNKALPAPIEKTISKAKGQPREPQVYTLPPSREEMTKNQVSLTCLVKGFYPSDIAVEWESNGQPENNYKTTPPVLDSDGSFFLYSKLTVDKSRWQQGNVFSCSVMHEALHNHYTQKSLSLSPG
- assay comment: competition: biotin-LAG-3-Fc binding to fixed Daudi cells, antibody titrated
Each entry below carries its reported IC50.

Example entries begin here.
# binder, IC50
records = [
    ("Hu229-017 (antibody, human IgG4 S228P, kappa, V domains shown, Humanized mAb229) VH: QVQLVQSGSELKKPGASVKVSCKASGYTFTTSGMSWVKQAPGQGLKWMGWINTYSGVPTYADDFKGRFVFSLDTSVSTAYLQISSLKAEDTATYFCARDNYDARDVYYYAMDYWGQGTTVTVSS VL: DIQMTQSPSSLSASVGDRVTITCRASENIYSNLAWYQQKPGKAPKLLVYAATNLADGVPSRFSGSGSGTDYTLTISSLQPEDFATYYCQHFWITPWTFGGGTKVEIKR", "0.239 nM"),
    ("Hu229-015 (antibody, human IgG4 S228P, kappa, V domains shown, Humanized mAb229) VH: QVQLVQSGSELKKPGASVKVSCKASGYTFTTSGMSWVKQAPGQGLKWMGWINTYSGVPTYADDFKGRFVFSLDTSVSTAYLQISSLKAEDTATYYCARDNYDARDVYYYAMDYWGQGTTVTVSS VL: DIQMTQSPSSLSASVGDRVTITCRASENIYSNLAWYQQKPGKSPKLLVYAATNLADGVPSRFSGSGSGTQYTLTISSLQPEDFATYYCQHFWITPWTFGGGTKVEIKR", "0.808 nM"),
]

// below: IC50 requested for another binder
Form field: reported IC50 of Hu303-015 (antibody, human IgG4 S228P, kappa, V domains shown, Humanized mAb303) VH: QVQLVQSGAEVKKPGASVKVSCKASGYTLTDYYMNWVRQAPGQRLEWMGVINPYNGDTAYNQKFKGRVTITVDKSASTAYMELSSLRSEDTAVYYCTRDDGYYDYYFDVWGQGTTVTVSS VL: DIQMTQSPSSLSASVGDRVTITCRASQDIGSRLNWYQQKPGKAPKRLIYATSTLDSGVPSRFSGSRSGTDFTLTISSLQPEDFATYYCLQLASSPPTFGGGTKVEIKR
0.398 nM

Provenance of the data: patent US20220031842A1
